- METHOD: qHTS assay for small molecule disruptors of the mitochondrial membrane potential (AID 720635)
- CONDITION_PARAMETERS: HepG2 mitochondrial membrane potential, Mito-MPS dye ratio; series mostly up to 83.2 µM
Inconclusive results are not listed. Active and inactive are the calls of the source. Calls follow the shape of the dose curve; as a rule, active = well fitted inhibition curve with a large enough effect in the signal ratio in the repeat runs; inconclusive = weak or mixed curves, or effect the other way; inactive = flat fitted curve, though single readings scatter; the % refers to the signal ratio.
API: response.call in active, inactive

What did the test return for `CC[Si](OC(C)=O)(OC(C)=O)OC(C)=O` ? inactive

What did the test return for `Clc1cc(Cl)c(Cl)cc1Cl` ? inactive

What did the test return for `CCCCNC(N)=O` ? inactive

What did the test return for `C=CC(=O)OCCCCCCCC(C)C` ? inactive

What did the test return for `C[C@@H]1O[C@@H](OC[C@H]2O[C@@H](Oc3c(-c4ccc(O)c(O)c4)oc4cc(O)cc(O)c4c3=O)[C@H](O)[C@@H](O)[C@@H]2O)[C@H](O)[C@H](O)[C@H]1O` ? inactive

What did the test return for `O=S(=O)(O)CCS` ? inactive

What did the test return for `CCc1ccc(O)cc1` ? active

What did the test return for `CC#C[C@]1(O)CC[C@H]2[C@@H]3CCC4=CC(=O)CCC4=C3[C@@H](c3ccc(N(C)C)cc3)C[C@@]21C` ? active

Further cases:
What did the test return for CCCCC(CC)COC(C)=O (configuration not stated) ? inactive

What did the test return for `CC(C)n1c(/C=C/[C@@H](O)C[C@@H](O)CC(=O)O)c(-c2ccc(F)cc2)c2ccccc21` ? active

What did the test return for `CCCCCCC(C)(C)S` ? inactive

What did the test return for `NCCc1ccc(O)c(O)c1` ? inactive
